Tested on: TAB109
Assay: qHTS profiling for inhibitors of Plasmodium falciparum proliferation (AID 504749); also: nearly all actives have a fitted effect of over 60% in size
Conditions: P. falciparum in erythrocytes, SYBR Green DNA, 72 h; series mostly up to 28.7 µM
Results filed as inconclusive are left out. Activity calls are given as the source filed them. Calls follow the shape of the dose curve; as a rule, active = well fitted inhibition curve with a large enough effect; inconclusive = small, poorly fitted or top-dose-only effect; inactive = flat fitted curve, though single readings scatter.
// one of 1.0 = active, 0.0 = inactive, no free text

Some entries whose results are on file:
>  <compound>
CC1(C)SC2C(NC(=O)C(C(=O)O)c3ccccc3)C(=O)N2C1C(=O)O (stereo not drawn)

>  <assigned-category>
0.0

$$$$
>  <compound>
CC1(C(=O)O)CCC2(C)CCC3(C)C(=CC(=O)C4C5(C)CCC(O)C(C)(C)C5CCC43C)C2C1 (stereo not drawn)

>  <assigned-category>
0.0

$$$$

Query block: Short answer needed: outcome of this test for CC[C@@H]1/C=C(\C)C[C@H](C)C[C@H](OC)[C@H]2O[C@@](O)(C(=O)C(=O)N3CCCC[C@H]3C(=O)O[C@H](/C(C)=C/[C@@H]3CC[C@H](Cl)[C@H](OC)C3)[C@H](C)[C@@H](O)CC1=O)[C@H](C)C[C@@H]2OC ?
Result block: 0.0

Query block: Short answer needed: outcome of this test for O=C1CC[C@H](C(=O)N[C@@H]2C[C@H]2c2ccccc2)N1 ?
Result block: 0.0

Query block: Short answer needed: outcome of this test for CC1(C)OC[C@@H]2O[C@@]3(C(=O)O)OC(C)(C)O[C@@H]3[C@@H]2O1 ?
Result block: 0.0

Query block: Short answer needed: outcome of this test for COC(=O)C1C2CC3c4[nH]c5cc(OC)ccc5c4CCN3CC2CC(OC)C1OC (stereo not drawn) ?
Result block: 0.0

Query block: Short answer needed: outcome of this test for C=C1N[C@]2(C(=O)COC(C)=O)[C@@H](C[C@H]3[C@@H]4CCC5=CC(=O)C=C[C@]5(C)[C@H]4[C@@H](O)C[C@@]32C)O1 ?
Result block: 0.0

Query block: Short answer needed: outcome of this test for CCC(C(=O)C(C)C(O)C(C)CCc1ccc(C)c(O)c1C(=O)O)C1OC(CC)(C2CC[C@@](O)(CC)C(C)O2)CC1C (stereo partly drawn) ?
Result block: 1.0

---

Assay: Cell Viability - LYMP2-015 (AID 971);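 also: cells exposed to compound for 24 h; nearly all actives have a fitted effect of over 55% in size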
Details: LYMP2-015 lymphoblastoid cell viability; series mostly up to 92.2 µM
Inconclusive results are not listed. Calls of active or inactive are those of the source. The call rests on the fitted dose curve; in most records, active means well fitted cell-killing curve with a large enough effect; inconclusive means small, poorly fitted or top-dose-only effect; inactive means flat fitted curve, though single readings scatter.
// one of active, inactive, no free text

Some entries whose results are on file:
>  <molecule>
CCC(C)Nc1ccc(NC(C)CC)cc1 (configuration not stated)

>  <assigned-category>
active

$$$$
>  <molecule>
C=CC(=O)OCCOCCOC(=O)C=C

>  <assigned-category>
active

$$$$
>  <molecule>
Nc1ccc2cc3ccccc3cc2c1

>  <assigned-category>
inactive

$$$$

Field: next molecule
Query block: Short answer needed: outcome of this test for O=C(/C=C/c1ccc(O)c(O)c1)OC1C[C@](O)(C(=O)O)C[C@@H](O)[C@H]1O (some centres not stated) ?
Result block: inactive

---

Assay: Stat Signaling Pathway (AID 446);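 also: ME-180 cervical cancer cells given 40 pM IL-6 alongside compound; SIE-controlled beta-lactamase reporter measured as 460/530 nm FRET emission ratio; % is scaled to controls: 0 for no effect and ±100 for the full control effect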
Settings: ME-180 (cervical carcinoma) SIE beta-lactamase reporter, IL-6 stimulated, 5 h; at 17.2 µM (top of the series) unless noted
Records with an inconclusive call do not appear. The source made the active and inactive calls. Calls follow the shape of the dose curve; as a rule, active = well fitted curve in either direction with a large enough effect (not every such curve was filed as active); inconclusive = small, poorly fitted or top-dose-only effect, or another doubt; inactive = flat fitted curve, though single readings scatter.
Recorded measurements of activity, negative = inhibition, one per entry

>  <compound>
COc1cccc(-c2nn3c(-c4ccccn4)nnc3s2)c1

>  <activity, negative = inhibition>
9.86% (inactive)

$$$$
>  <compound>
CC1(C)CC(=O)C(C=NCC(O)c2ccccc2)=C(O)C1 (centres undefined)

>  <activity, negative = inhibition>
8.79% (inactive)

$$$$

Query block: Name the reported activity, negative = inhibition value associated with the compound COc1cc(S(=O)(=O)N2CCN(C)CC2)c(OC)cc1Br
Result block: 3.25% (inactive)

Query block: Name the reported activity, negative = inhibition value associated with the compound N#Cc1c(N)sc(=S)c2c1CCCCC2
Result block: -20.4% (inactive)

Query block: Name the reported activity, negative = inhibition value associated with the compound Cc1cccc(N)c1SC1CCCCC1O (centres undefined)
Result block: 2.62% (inactive)

Query block: Name the reported activity, negative = inhibition value associated with the compound CC(C)OCCCn1c(=N)c(C(N)=S)cc2c(=O)n3ccccc3nc21
Result block: -1.51% (inactive)

Query block: Name the reported activity, negative = inhibition value associated with the compound COc1ccc(/C(O)=C2\C(=O)C(=O)N(CCN(C)C)C2c2cccc(OC)c2OC)cc1Cl (centres undefined)
Result block: 8.3% (inactive)

Query block: Name the reported activity, negative = inhibition value associated with the compound Cc1nc2c(c(=O)n1CC1CCCO1)c1nc3ccccc3nc1n2Cc1ccc2c(c1)OCO2 (centres undefined)
Result block: -13.4% (inactive)

Query block: Name the reported activity, negative = inhibition value associated with the compound O=C(Oc1cccnc1)c1ccco1
Result block: 8.88% (inactive)

Query block: Name the reported activity, negative = inhibition value associated with the compound Cc1cccn2c(=O)c(/C=C(\C#N)S(=O)(=O)c3ccccc3)c(N3CCN(C)CC3)nc12
Result block: 3.87% (inactive)

Query block: Name the reported activity, negative = inhibition value associated with the compound Cc1ccc(CNc2oc(COc3ccccc3Cl)nc2C#N)cc1
Result block: -8.99% (inactive)

Query block: Name the reported activity, negative = inhibition value associated with the compound O=S(=O)(/C=C/c1ccccc1)Nc1ccc2c(c1)OCO2
Result block: -22.1% (inactive)

Query block: Name the reported activity, negative = inhibition value associated with the compound C=CCNc1nc(-c2ccc(O)c(C(N)=O)c2)cs1
Result block: -12.3% (inactive)

Query block: Name the reported activity, negative = inhibition value associated with the compound CN1CCc2c(C#N)c(N3CCCCC3)nc(N3CCOCC3)c2C1
Result block: 10.9% (inactive)
